molecular target: Bcl-2 protein (Recombinant Human Bcl-2 Protein) (Homo sapiens, UniProt P10415); construct: purchased Novus NBP2-34889; assay: Binding evaluation of mixture library compounds to Bcl-2 using AS-MS (affinity selection mass spectrometry); conditions: AS-MS, mixture of 1200 compounds, Bcl-2; ASMS Ratio(%)=(A−C)/B×100; replicate n = 2
Sequence (P10415 whole entry): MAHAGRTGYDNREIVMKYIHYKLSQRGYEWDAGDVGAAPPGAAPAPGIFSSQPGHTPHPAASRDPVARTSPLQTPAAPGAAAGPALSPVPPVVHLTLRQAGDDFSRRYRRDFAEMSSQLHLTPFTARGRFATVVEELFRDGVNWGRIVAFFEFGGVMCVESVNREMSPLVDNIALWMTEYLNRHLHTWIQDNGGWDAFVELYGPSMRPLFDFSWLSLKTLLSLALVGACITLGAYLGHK
This listing pairs compounds with measured ASMS ratio (%) n = 2.

| smilesStructure | unitAbbrev | ASMS ratio (%) n = 2 |
| --- | --- | --- |
| CCOc1cccc(C#Cc2ccccc2CN2CCN(c3ccc(C(=O)NCC(F)(F)F)nn3)CC2)c1 | % | −0.6 |
| CCOc1cccc(-c2cc(C(=O)N3CCN(c4ccc(C(=O)NCC56CC7CC(CC(C7)C5)C6)nn4)CC3)cc(C(F)(F)F)c2)c1 | % | 5.4 |
| CCOc1cccc(-c2csc(CN3CCN(c4ccc(C(=O)NCC56CC7CC(CC(C7)C5)C6)nn4)CC3)c2)c1 | % | 0.0 |
| CCOc1cccc(-c2ccc(CN3CCN(c4ccc(C(=O)NCC(F)(F)F)nn4)CC3)c(CC)c2)c1 | % | −3.8 |
| CCOc1cncc(-c2ccccc2CN2CCN(c3ccc(C(=O)NCC45CC6CC(CC(C6)C4)C5)cc3)CC2)c1 | % | 0.0 |
| CCOc1cncc(C#Cc2ccccc2C(=O)N2CCN(c3ccc(C(=O)NCC(F)(F)F)nn3)CC2)c1 | % | 0.0 |
| CCOc1cncc(-c2csc(CN3CCN(c4ccc(C(=O)NCC(F)(F)F)cc4)CC3)c2)c1 | % | −1.4 |
| CCOc1cccc(-c2cnn(-c3cc(C(=O)N4CCN(c5ccc(C(=O)NCC(F)(F)F)nn5)CC4)cc(C(F)(F)F)c3)c2)c1 | % | −1.9 |
| CCOc1cncc(-c2ccc(CN3CCN(c4ccc(C(=O)NCC56CC7CC(CC(C7)C5)C6)cc4)CC3)c(CC)c2)c1 | % | 3.0 |
| CCOc1cccc(-c2cc(CN3CCN(c4ccc(C(=O)NCC56CC7CC(CC(C7)C5)C6)cc4)CC3)cc(OCC)c2)c1 | % | −14.4 |
| CCOc1cccc(-c2ccc(CN3CCN(c4ccc(C(=O)NCC(F)(F)F)cc4)CC3)c(OC)c2)c1 | % | −3.3 |
| CCOc1cccc(-c2cc(CN3CCN(c4ccc(C(=O)NCC56CC7CC(CC(C7)C5)C6)cc4)CC3)cc(OC(C)C)c2)c1 | % | 0.0 |
| CCOc1cncc(-c2cc(C(=O)N3CCN(c4ccc(C(=O)NCC(F)(F)F)nn4)CC3)cc(C(F)(F)F)c2)c1 | % | 0.5 |
| CCOc1cncc(-c2ccccc2CCC(=O)N2CCN(c3ccc(C(=O)NCC(F)(F)F)cc3)CC2)c1 | % | 0.0 |

----------
molecular target: Bcl-2 protein (Recombinant Human Bcl-2 Protein) (Homo sapiens); construct: purchased Novus NBP2-34889; assay: Binding evaluation of mixture library compounds to Bcl-2 using AS-MS (affinity selection mass spectrometry); conditions: AS-MS on the mixture of 1200 library compounds; ASMS Ratio(%)=(A−C)/B×100; replicate n = 1
propertyName: ASMS ratio (%) n = 1

| compound | recordedValue |
| --- | --- |
| CCOc1cncc(-c2cc(CN3CCN(c4ccc(C(=O)Nc5ccc(OC)cc5)cc4)CC3)cc(C(F)(F)F)c2)c1 [B1O062-01] | 1.3% |
| CCOc1cncc(-c2ccc(CN3CCN(c4ccc(C(=O)N(CC)CC)cc4)CC3)c(OC)c2)c1 [B4J054-01] | 0.0% |
| CCOc1cccc(-c2ccc(CN3CCN(c4ccc(C(=O)N(C)CC56CC7CC(CC(C7)C5)C6)nn4)CC3)c3ccccc23)c1 [B3A091-01] | −1.0% |
| CCOc1cncc(-c2cc(CN3CCN(c4ccc(C(=O)Nc5ccc(OC)cc5)cc4)CC3)cc(OCC)c2)c1 [B1O056-01] | 6.7% |
| CCOc1cccc(-c2cc(C(=O)N3CCN(c4ccc(C(=O)N(CC)CC)nn4)CC3)cc(C(C)(C)C)c2)c1 [B4J015-01] | 0.0% |
| CCOc1cncc(-c2cc(C(=O)N3CCN(c4ccc(C(=O)N(C)CC56CC7CC(CC(C7)C5)C6)nn4)CC3)cc(C(F)(F)F)c2)c1 [B3A018-01] | 5.0% |
| CCOc1cccc(-c2cc(CN3CCN(c4ccc(C(=O)N(C)CC56CC7CC(CC(C7)C5)C6)nn4)CC3)cc(OC(C)C)c2)c1 [B3A083-01] | 3.9% |

----------
biological target: Bcl-2 protein (Recombinant Human Bcl-2 Protein) (Homo sapiens, UniProt P10415); construct: purchased Novus NBP2-34889; test: Binding evaluation of mixture library compounds to Bcl-2 using AS-MS (affinity selection mass spectrometry); conditions: AS-MS on the mixture of 1200 library compounds; ASMS Ratio(%)=(A−C)/B×100; replicate n = 1

| smilesStructure | ASMS ratio (%) n = 1 |
| --- | --- |
| CCOc1cccc(-c2csc(C(=O)N3CCN(c4ccc(C(=O)Nc5ccc(OC)cc5)nn4)CC3)c2)c1 | −0.1 |
| CCOc1cncc(-c2ccccc2CN2CCN(c3ccc(C(=O)N(CC)CC)cc3)CC2)c1 | 0.0 |
| CCOc1cncc(-c2cc(CN3CCN(c4ccc(C(=O)Nc5ccc(OC)cc5)cc4)CC3)cc(OC(F)(F)F)c2)c1 | 0.7 |
| CCOc1cncc(C#Cc2ccccc2C(=O)N2CCN(c3ccc(C(=O)Nc4ccc(OC)cc4)nn3)CC2)c1 | 1.1 |

----------
This listing pairs compounds with measured ASMS ratio (%) n = 2.
target: Bcl-2 protein (Recombinant Human Bcl-2 Protein) (Homo sapiens, UniProt P10415); construct: purchased Novus NBP2-34889; assay: Binding evaluation of mixture library compounds to Bcl-2 using AS-MS (affinity selection mass spectrometry); details: AS-MS on the mixture of 1200 library compounds; ASMS Ratio(%)=(A−C)/B×100; replicate n = 2

| compound | unitAbbrev | ASMS ratio (%) n = 2 |
| --- | --- | --- |
| CCOc1cncc(-c2csc(C(=O)N3CCN(c4ccc(C(=O)N(CC)CC)cc4)CC3)c2)c1 | % | 6.8 |
| CCOc1cncc(-c2csc(C(=O)N3CCN(c4ccc(C(=O)N(C)CC56CC7CC(CC(C7)C5)C6)cc4)CC3)c2)c1 | % | −0.4 |
| CCOc1cncc(-c2ccccc2CN2CCN(c3ccc(C(=O)N(C)CC45CC6CC(CC(C6)C4)C5)nn3)CC2)c1 | % | 3.1 |
| CCOc1cccc(-c2ccc(C(C)N3CCN(c4ccc(C(=O)Nc5ccc(OC)cc5)cc4)CC3)c(F)c2)c1 (stereo not drawn) | % | 1.7 |
| CCOc1cccc(-c2ccc(CN3CCN(c4ccc(C(=O)N(C)CC56CC7CC(CC(C7)C5)C6)nn4)CC3)cc2F)c1 | % | −2.8 |
| CCOc1cncc(-c2cc(C(=O)N3CCN(c4ccc(C(=O)N(C)CC56CC7CC(CC(C7)C5)C6)nn4)CC3)cc(C(F)(F)F)c2)c1 | % | 1.8 |
| CCOc1cccc(-c2ccc(CN3CCN(c4ccc(C(=O)Nc5ccc(OC)cc5)cc4)CC3)c3ccccc23)c1 | % | 0.8 |
| CCOc1cccc(C#Cc2cncc(C(=O)N3CCN(c4ccc(C(=O)N(C)CC56CC7CC(CC(C7)C5)C6)cc4)CC3)c2)c1 | % | −15.2 |
| CCOc1cncc(-c2ccc(C(=O)N3CCN(c4ccc(C(=O)N(C)CC56CC7CC(CC(C7)C5)C6)cc4)CC3)c3ccccc23)c1 | % | −3.3 |
| CCOc1cncc(-c2csc(C(=O)N3CCN(c4ccc(C(=O)Nc5ccc(OC)cc5)cc4)CC3)c2)c1 | % | 2.3 |
| CCOc1cccc(-c2ccc(C(=O)N3CCN(c4ccc(C(=O)N(CC)CC)nn4)CC3)cc2F)c1 | % | 2.1 |
| CCOc1cncc(-c2cc(CN3CCN(c4ccc(C(=O)Nc5ccc(OC)cc5)nn4)CC3)cc(OC(F)(F)F)c2)c1 | % | −2.0 |
| CCOc1cncc(-c2cc(CN3CCN(c4ccc(C(=O)N(C)CC56CC7CC(CC(C7)C5)C6)nn4)CC3)cc(OC(C)C)c2)c1 | % | −7.4 |
| CCOc1cncc(-c2ccc(C(=O)N3CCN(c4ccc(C(=O)Nc5ccc(OC)cc5)cc4)CC3)cc2F)c1 | % | 0.4 |
| CCOc1cccc(C#Cc2ccccc2CN2CCN(c3ccc(C(=O)N(C)CC45CC6CC(CC(C6)C4)C5)cc3)CC2)c1 | % | 12872.1 |
| CCOc1cccc(C#Cc2ccccc2CN2CCN(c3ccc(C(=O)Nc4ccc(OC)cc4)cc3)CC2)c1 | % | −2.4 |
| CCOc1cncc(-c2cc(CN3CCN(c4ccc(C(=O)Nc5ccc(OC)cc5)cc4)CC3)cc(OC(F)(F)F)c2)c1 | % | −4.0 |
| CCOc1cccc(-c2ccc(CN3CCN(c4ccc(C(=O)N(CC)CC)cc4)CC3)c(OC)c2)c1 | % | −6.0 |
| CCOc1cccc(-c2cc(CN3CCN(c4ccc(C(=O)Nc5ccc(OC)cc5)cc4)CC3)cc(OC(C)C)c2)c1 | % | −2.2 |
| CCOc1cncc(-c2cnn(-c3cc(C(=O)N4CCN(c5ccc(C(=O)Nc6ccc(OC)cc6)cc5)CC4)cc(C(F)(F)F)c3)c2)c1 | % | 0.4 |
| CCOc1cccc(C#Cc2cc(C(=O)N3CCN(c4ccc(C(=O)N(CC)CC)cc4)CC3)cc(C(F)(F)F)c2)c1 | % | 1.7 |
| CCOc1cncc(-c2cc(C(=O)N3CCN(c4ccc(C(=O)N(CC)CC)cc4)CC3)cc(C(C)(C)C)c2)c1 | % | 0.0 |
| CCOc1cccc(-c2cnn(-c3cc(C(=O)N4CCN(c5ccc(C(=O)Nc6ccc(OC)cc6)nn5)CC4)cc(C(F)(F)F)c3)c2)c1 | % | −1.2 |
| CCOc1cncc(-c2cc(OC)c(CN3CCN(c4ccc(C(=O)N(C)CC56CC7CC(CC(C7)C5)C6)nn4)CC3)c(OC)c2)c1 | % | −1.9 |
| CCOc1cccc(-c2ccc(C(=O)N3CCN(c4ccc(C(=O)N(C)CC56CC7CC(CC(C7)C5)C6)nn4)CC3)cc2C)c1 | % | 4.9 |
| CCOc1cccc(-c2ccc(CN3CCN(c4ccc(C(=O)Nc5ccc(OC)cc5)nn4)CC3)c3ccccc23)c1 | % | 2.2 |
| CCOc1cccc(C#Cc2ccccc2C(=O)N2CCN(c3ccc(C(=O)N(C)CC45CC6CC(CC(C6)C4)C5)cc3)CC2)c1 | % | 0.0 |
